# TGT: hERG potassium channel (Homo sapiens (Human), UniProt Q12809)
# Sequence (Q12809 whole entry): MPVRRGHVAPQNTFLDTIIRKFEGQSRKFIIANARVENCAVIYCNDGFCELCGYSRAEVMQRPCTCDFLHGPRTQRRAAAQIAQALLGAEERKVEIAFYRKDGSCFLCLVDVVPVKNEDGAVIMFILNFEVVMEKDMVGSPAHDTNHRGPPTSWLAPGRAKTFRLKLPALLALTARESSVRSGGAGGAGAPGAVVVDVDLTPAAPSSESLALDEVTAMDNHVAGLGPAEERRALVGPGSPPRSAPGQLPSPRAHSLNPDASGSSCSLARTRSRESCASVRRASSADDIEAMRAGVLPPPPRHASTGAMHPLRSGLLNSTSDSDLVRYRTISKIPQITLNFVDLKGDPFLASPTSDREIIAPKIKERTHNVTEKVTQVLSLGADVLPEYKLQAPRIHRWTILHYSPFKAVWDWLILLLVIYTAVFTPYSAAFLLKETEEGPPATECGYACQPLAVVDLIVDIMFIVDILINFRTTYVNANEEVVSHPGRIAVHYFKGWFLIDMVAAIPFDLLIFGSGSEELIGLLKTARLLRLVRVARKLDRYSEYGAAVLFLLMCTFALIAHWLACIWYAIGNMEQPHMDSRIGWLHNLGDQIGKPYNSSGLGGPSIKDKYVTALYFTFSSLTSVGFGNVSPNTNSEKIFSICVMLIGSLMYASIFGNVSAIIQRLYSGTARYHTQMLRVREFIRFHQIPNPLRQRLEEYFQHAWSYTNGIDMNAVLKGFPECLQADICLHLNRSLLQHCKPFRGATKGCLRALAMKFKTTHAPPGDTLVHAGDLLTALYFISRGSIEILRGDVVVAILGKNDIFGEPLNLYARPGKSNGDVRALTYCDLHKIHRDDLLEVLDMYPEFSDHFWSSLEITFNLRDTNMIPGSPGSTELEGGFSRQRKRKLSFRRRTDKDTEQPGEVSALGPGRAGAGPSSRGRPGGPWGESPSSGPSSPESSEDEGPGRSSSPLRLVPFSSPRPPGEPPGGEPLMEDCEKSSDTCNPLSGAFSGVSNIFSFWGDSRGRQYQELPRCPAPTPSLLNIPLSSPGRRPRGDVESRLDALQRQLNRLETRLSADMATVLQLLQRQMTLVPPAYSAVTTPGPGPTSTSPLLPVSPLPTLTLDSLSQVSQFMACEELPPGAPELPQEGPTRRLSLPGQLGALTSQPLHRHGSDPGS
# ASSAY SUMMARY: hERG assay (IC50), automated PatchXpress in hERG-expressing HEK-293 cells
# MEASUREMENT PARAMETERS: 0.01-100 μM, 5 minutes after adding test article
MEASURED ENDPOINT: IC50

Cn1ncc(NC(=O)c2nc(-c3c(F)cccc3F)sc2N)c1[C@@H]1CC[C@@H](N)[C@H](F)CO1: 16 µM

Okay, now this compound:
Which measured IC50 value corresponds to "CO[C@H]1CO[C@H](c2c(NC(=O)c3nc(-c4c(F)cccc4F)sc3N)cnn2C)CC[C@H]1N" ?
9.1 µM
